# credit: patent US20260137698A1

Target: CDK7/Cyclin H/MNAT1 (Homo sapiens)
Sequence (P50613 whole entry): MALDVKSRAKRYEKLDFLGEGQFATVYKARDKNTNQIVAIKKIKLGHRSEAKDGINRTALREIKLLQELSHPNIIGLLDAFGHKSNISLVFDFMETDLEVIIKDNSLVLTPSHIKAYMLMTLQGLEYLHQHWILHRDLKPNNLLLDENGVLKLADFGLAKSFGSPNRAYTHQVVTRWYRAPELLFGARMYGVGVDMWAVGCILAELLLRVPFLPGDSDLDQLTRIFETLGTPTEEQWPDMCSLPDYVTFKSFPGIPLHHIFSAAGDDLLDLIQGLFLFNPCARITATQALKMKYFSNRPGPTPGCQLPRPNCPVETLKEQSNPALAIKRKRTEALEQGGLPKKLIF
Sequence (P51946 whole entry partner): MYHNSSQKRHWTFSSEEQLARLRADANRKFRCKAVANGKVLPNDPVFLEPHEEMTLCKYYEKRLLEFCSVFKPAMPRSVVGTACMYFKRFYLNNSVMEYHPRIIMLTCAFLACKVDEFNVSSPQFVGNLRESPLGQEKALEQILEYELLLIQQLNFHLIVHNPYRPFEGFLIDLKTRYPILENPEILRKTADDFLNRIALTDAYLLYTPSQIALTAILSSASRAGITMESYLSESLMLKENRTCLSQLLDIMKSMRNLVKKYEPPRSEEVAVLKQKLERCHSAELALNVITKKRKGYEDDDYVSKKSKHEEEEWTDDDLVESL
Sequence (P51948 whole entry partner): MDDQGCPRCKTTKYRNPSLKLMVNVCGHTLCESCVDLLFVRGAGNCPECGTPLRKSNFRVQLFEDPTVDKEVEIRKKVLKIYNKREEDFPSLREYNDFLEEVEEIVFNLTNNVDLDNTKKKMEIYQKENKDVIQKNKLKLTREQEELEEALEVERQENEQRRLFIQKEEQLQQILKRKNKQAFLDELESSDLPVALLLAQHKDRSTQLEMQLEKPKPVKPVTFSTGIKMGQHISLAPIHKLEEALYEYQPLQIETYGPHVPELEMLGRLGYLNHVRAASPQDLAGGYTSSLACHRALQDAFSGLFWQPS
Assay: Inhibition of CDK7/Cyclin H/MNAT1 kinase activity (ADP-Glo)
Type: biochemical
Conditions: mean value from several measurements; read-out: IC50 CDK7/Cyclin H/MNAT
pIC50: −log10 of the molar value.
Exercise: for every item that follows, state its recorded pIC50.

Request: Fill in the blank: the reported pIC50 of CP(C)(=O)c1cccc(Nc2nc(N[C@H]3CCCNC3)ncc2C(F)(F)F)c1 is ____.
Result: 7.30 to 8.30

Request: Fill in the blank: the reported pIC50 of N#Cc1ccc(NC(=O)c2cc(-c3nc(N[C@H]4CCCNC4)ncc3C(F)(F)F)c[nH]2)cc1 is ____.
Result: 6.70 to 7.30

Request: Fill in the blank: the reported pIC50 of CN1CCCc2c(-c3nc(N[C@H]4CCC(C)(C)NC4)ncc3C(F)(F)F)c[nH]c2C1=O is ____.
Result: > 8.30

Request: Fill in the blank: the reported pIC50 of CN1CCCc2c(-c3nc(N[C@H]4CCC5(CC5)NC4)ncc3C(F)(F)F)c[nH]c2C1=O is ____.
Result: > 8.30

Request: Fill in the blank: the reported pIC50 of Cc1ccc(Nc2nc(N[C@H]3CCCNC3)ncc2C(F)(F)F)c(P(C)(C)=O)c1 is ____.
Result: > 8.30

Request: Fill in the blank: the reported pIC50 of CN(C(=O)c1cc(-c2nc(N[C@H]3CCCNC3)ncc2C(F)(F)F)c[nH]1)c1nccs1 is ____.
Result: 7.30 to 8.30

Request: Fill in the blank: the reported pIC50 of O=c1[nH]cc(-c2nc(N[C@H]3CCCNC3)ncc2C(F)(F)F)c2ccccc12 is ____.
Result: 7.30 to 8.30

Request: Fill in the blank: the reported pIC50 of O=C(Nc1ccc(N2CCOCC2)cc1)c1cc(-c2nc(N[C@H]3CCCNC3)ncc2C(F)(F)F)c[nH]1 is ____.
Result: 7.30 to 8.30

###

Target: CDK9/Cyclin K (Homo sapiens, UniProt P50750)
Sequence (P50750 whole entry): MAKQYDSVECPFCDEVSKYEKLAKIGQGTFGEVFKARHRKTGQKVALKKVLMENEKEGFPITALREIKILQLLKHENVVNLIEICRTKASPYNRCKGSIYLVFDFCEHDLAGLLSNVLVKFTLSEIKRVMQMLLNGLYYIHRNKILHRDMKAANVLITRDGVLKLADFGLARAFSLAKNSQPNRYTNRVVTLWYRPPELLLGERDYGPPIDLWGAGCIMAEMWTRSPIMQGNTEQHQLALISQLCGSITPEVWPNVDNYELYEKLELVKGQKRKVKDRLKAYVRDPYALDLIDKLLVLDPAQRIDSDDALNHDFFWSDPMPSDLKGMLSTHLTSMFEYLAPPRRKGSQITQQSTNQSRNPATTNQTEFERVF
Sequence (O75909 whole entry partner): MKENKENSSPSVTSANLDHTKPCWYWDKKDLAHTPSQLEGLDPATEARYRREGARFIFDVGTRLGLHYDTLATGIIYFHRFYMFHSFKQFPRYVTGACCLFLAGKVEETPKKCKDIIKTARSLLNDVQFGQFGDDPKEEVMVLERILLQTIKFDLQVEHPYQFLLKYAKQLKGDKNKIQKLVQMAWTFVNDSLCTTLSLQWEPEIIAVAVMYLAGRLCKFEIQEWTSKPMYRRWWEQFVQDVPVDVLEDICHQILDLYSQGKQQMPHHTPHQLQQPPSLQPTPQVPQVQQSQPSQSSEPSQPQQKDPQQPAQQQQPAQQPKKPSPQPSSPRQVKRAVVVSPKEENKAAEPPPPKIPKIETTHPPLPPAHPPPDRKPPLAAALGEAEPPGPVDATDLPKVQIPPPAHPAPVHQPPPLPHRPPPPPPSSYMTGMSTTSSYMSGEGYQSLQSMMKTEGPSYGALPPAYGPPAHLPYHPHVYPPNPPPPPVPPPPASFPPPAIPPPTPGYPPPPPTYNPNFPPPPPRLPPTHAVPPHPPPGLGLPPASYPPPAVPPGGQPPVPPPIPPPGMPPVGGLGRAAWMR
Test: Inhibition of CDK9/Cyclin K kinase activity (ADP-Glo)
Format: biochemical
Conditions: mean value from several measurements; read-out: IC50 CDK9/Cyclin K
Exercise: for every item that follows, state its recorded IC50.

Request: Fill in the blank: the reported IC50 of Cn1cc(-n2ccc3c(-c4nc(N[C@H]5CCC6(CC6)NC5)ncc4C(F)(F)F)c[nH]c3c2=O)cn1 [CDK7_1199] is ____.
Result: > 200 nM

Request: Fill in the blank: the reported IC50 of O=C(NCc1ccccc1)c1cc(-c2nc(N[C@H]3CCCNC3)ncc2C(F)(F)F)c[nH]1 [CDK7_997] is ____.
Result: 50 to 200 nM

Request: Fill in the blank: the reported IC50 of O=C(NC1CCOCC1)c1cc(-c2nc(N[C@H]3CCCNC3)ncc2C(F)(F)F)c[nH]1 [CDK7_850] is ____.
Result: 50 to 200 nM

Request: Fill in the blank: the reported IC50 of O=C(Nc1ncc[nH]1)c1cc(-c2nc(N[C@H]3CCCNC3)ncc2C(F)(F)F)c[nH]1 [CDK7_833] is ____.
Result: 50 to 200 nM

Request: Fill in the blank: the reported IC50 of CCOC(=O)c1cc(-c2nc(N[C@H]3CCCNC3)ncc2C(F)(F)F)c[nH]1 [CDK7_1020] is ____.
Result: 5 to 50 nM

Request: Fill in the blank: the reported IC50 of O=C1c2[nH]cc(-c3nc(NC4CCCNC4)ncc3C(F)(F)F)c2CCCN1c1nccs1 (stereo not drawn) [CDK7_1172] is ____.
Result: > 200 nM

Request: Fill in the blank: the reported IC50 of CN1CC=Cc2c(-c3nc(N[C@H]4CCCNC4)ncc3C(F)(F)F)c[nH]c2C1=O [CDK7_929] is ____.
Result: 5 to 50 nM

Request: Fill in the blank: the reported IC50 of Cn1nnc(-c2cc(-c3nc(N[C@H]4CCCNC4)ncc3C(F)(F)F)c[nH]2)n1 [CDK7_1000] is ____.
Result: 5 to 50 nM

Request: Fill in the blank: the reported IC50 of O=C(c1ccccc1)c1cc(-c2nc(N[C@H]3CCCNC3)ncc2C(F)(F)F)c[nH]1 [CDK7_535] is ____.
Result: 50 to 200 nM
